These measurements were taken from paper PMC11784839.

Molecular target: tau (Homo sapiens)
Sequence (P10636 623-695 limits assumed): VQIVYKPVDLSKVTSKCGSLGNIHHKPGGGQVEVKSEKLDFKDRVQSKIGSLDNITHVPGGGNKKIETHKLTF
Assay: MCE Phenols Library screening, tau biosensor cell seeding assay (AvZ)
Assay type: cell-based
Conditions: Z score, replicate 2
Decide using Z Repl 2 alone. Strictly below -0.4: True. Equal to or above -0.4: False.

Consider the worked cases shown below.
compound="O=C(O)c1ccc(O)cc1O [2,4-Dihydroxybenzoic acid]" qualitative_label=False
compound=COc1ccc(-c2cc(=O)c3c(O)c(OC)c(OC)cc3o2)cc1O qualitative_label=False
compound="CC(=O)c1ccc(C)cc1O [2'-Hydroxy-4'-methylacetophenone]" qualitative_label=True
compound=COc1cc(O)c2c(c1)O[C@H](c1ccc(O)cc1)CC2=O qualitative_label=False

Query :: I wonder whether CC(=O)c1ccc(O)cc1C [4?-Hydroxy-2?-methylacetophenone] has Z Repl 2 below -0.4. Can you tell?
Result :: False

Query :: Is Z Repl 2 strictly under -0.4 for the entry O=C(OC[C@H]1OC(OC(=O)c2cc(O)c(O)c(O)c2)[C@H](OC(=O)c2cc(O)c(O)c(O)c2)[C@@H](OC(=O)c2cc(O)c(O)c(O)c2)[C@@H]1O)c1cc(O)c(O)c(O)c1 (stereo partly drawn) ?
Result :: True

Query :: Z Repl 2 under -0.4? Item: Cc1c(C)c2c(c(C)c1O)CCC(C)(CCCC(C)CCCC(C)CCCC(C)C)O2 (racemic)
Result :: False

Query :: Please state whether Z Repl 2 is below -0.4 for `O=C(O)C[C@@H]1C(=O)O[C@H]2[C@H](OC(=O)c3cc(O)c(O)c(O)c3)[C@@H](OC(=O)c3cc(O)c(O)c4c3[C@H]1[C@H](O)C(=O)O4)[C@H](OC(=O)c1cc(O)c(O)c(O)c1)O[C@@H]2COC(=O)c1cc(O)c(O)c(O)c1`
Result :: True

Query :: Is it true that Z Repl 2 reported for Cl.NCC(O)c1ccc(O)cc1 (stereo not drawn) [Octopamine (hydrochloride)] is less than -0.4?
Result :: False

Query :: Hi there! Is Z Repl 2 for COc1cc(/C=C/C(=O)O[C@H]2C[C@@](O)(C(=O)O)C[C@H](O)[C@@H]2O)ccc1O (stereo in doubt) below -0.4, do you know?
Result :: False

Query :: Strictly below -0.4 in Z Repl 2? `COc1cc2oc(-c3ccccc3)cc(=O)c2c(O)c1O`
Result :: True

---

Target: tau (Homo sapiens)
Experiment: MCE Phenols Library screening, tau biosensor cell seeding assay (AvZ)
Format: cell-based
Details: Z score, replicate 1
Parameter: Z repl 1. Scope: all listed entries.
Lab note: jot down the number only; don't add units.

Query :: Give me measured Z repl 1, please, for this molecule: `COc1cc(O)c2c(c1)O[C@H](c1ccccc1)CC2=O`
Result :: -0.797

Query :: Answer with reported Z repl 1 of COC(=O)[C@@H](Cc1ccc(O)c(O)c1)OC(=O)/C=C/c1ccc(O)c(O)c1 [Methyl rosmarinate]
Result :: -0.241

Query :: Please look at this molecule and report its Z repl 1: `O=C1c2c(O)cccc2[C@@H]([C@@H]2O[C@H](CO)[C@@H](O)[C@H](O)[C@H]2O)c2cc(CO)cc(O)c21`
Result :: 0.434

Query :: Write down Z repl 1 measured for item `COc1cc(C=O)cc(OC)c1O`
Result :: 0.142

Query :: Report Z repl 1, nothing else, for this molecule: `CCCCCCCCC[C@H](O)CC(=O)CCc1ccc(O)c(OC)c1`
Result :: -0.921

Query :: Report Z repl 1 for `O=c1c(O)c(-c2ccc(O)c(O)c2)oc2cc(O[C@@H]3O[C@H](CO)[C@@H](O)[C@H](O)[C@H]3O)c(O)c(O)c12`
Result :: -1.577

Query :: Consider the molecule Nc1ccc(O)c(C(=O)O)c1 [5-Aminosalicylic Acid, reference compound] . State its measured Z repl 1.
Result :: -0.552

Query :: Identify measured Z repl 1 associated with CC(=O)c1c(O)c(C)c(O)c2c1OC1=CC(=O)C(C(C)=O)C(=O)C12C (stereo not drawn)
Result :: 1.459

Query :: Quickly give me recorded Z repl 1 for `O=c1oc2c(O)c(O)cc3c(=O)oc4c(O)c(O)cc1c4c23`
Result :: -1.043

Query :: Consider the molecule O=c1c(-c2ccc(O)c(O)c2)coc2c([C@@H]3O[C@H](CO)[C@@H](O)[C@H](O)[C@H]3O)c(O)ccc12 [3'-Hydroxypuerarin] and give its recorded Z repl 1.
Result :: -0.715

Query :: Give recorded Z repl 1. `C=C(C)[C@H](CC=C(C)C)Cc1c(O)cc(OC)c2c1O[C@H](c1ccc(O)cc1OC)CC2=O`
Result :: 0.362

Query :: Identify measured Z repl 1 associated with `COc1c(O)cc2oc(-c3ccc(O)c(O)c3)cc(=O)c2c1O`
Result :: -0.728
